All values here come from patent US20260234159A1.

- MEASUREMENT_PROTOCOL: In vivo toxicological study in rats: haematology
- Parameters: species or system rats of the Wistar strain
- MEASUREMENT_CONTEXT: female, 100 mg/kg oral daily 7 d
Provide the reported MONO of each item.

Below, each entry is followed by its recorded MONO result.
{"columns": ["SUBSTANCE_SMILES", "OBSERVED_VALUE"],
 "data": [
  ["N#Cc1c(NC(=O)c2cccc3ccccc23)sc2c1CCN(C(=O)Nc1ccccc1OC(F)(F)F)C2", "0.10 10^9/l"],
  ["N#Cc1c(NC(=O)c2cccc3ccccc23)sc2c1CCN(CC(=O)Nc1cccc(Br)c1)C2", "0.10 10^9/l"],
  ["COc1ccccc1NC(=O)N1CCc2c(sc(NC(=O)c3cccc4ccccc34)c2C#N)C1", "0.17 10^9/l"]
]}

Input: Reported MONO, compound COc1ccc(C(=O)Nc2sc3c(c2C#N)CCCCC3)cc1OC : ____
Output: 0.27 10^9/l
